# ASSAY NOTES: inhibitors of E-selectin induction by TNFa, primary screen, imaging, HUVEC, immunofluorescence, MLSMR starter and 10KST1 sets (AID 487);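 further: 100% = median nuclei count of all wells on the same plate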
# PROTOCOL CONDITIONS: HUVEC TNFalpha-induced E-selectin immunofluorescence imaging, at 2 µM; measured here: cell number, toxicity
Task for the reader: assign each of the following compounds its reported nuclei count.
Only the number, expressed in %, is required.

// field: nuclei count; key: CCCc1cc(=O)oc2c(CN3CCCC3)c(O)ccc12 ; value = 118

// field: nuclei count; key: CNc1oc(-c2ccccc2Cl)nc1C#N ; value = 79.3

// field: nuclei count; key: CSc1nc(C)c2c(c1C#N)CCCC2 ; value = 148

// field: nuclei count; key: CCN(CC)S(=O)(=O)c1ccc(Br)c(OC)c1 ; value = 107

// field: nuclei count; key: COc1ccc(/C(O)=C2/C(=O)C(=O)N(CCCN(C)C)C2c2ccc(Cl)cc2)cc1OC (stereo unspecified) ; value = 112

// field: nuclei count; key: CCOc1cccc(-c2nnc3sc(COc4ccc(OC)cc4)nn23)c1 ; value = 118
